Origin of values: patent US8507440B2

# assay procedure: in vivo
# condition notes: rat, whole blood, ip, 4 g/kg, T ½ Early, Blood, 7 day old rat, 4 g/kg 15% EtOH i.p.
result type: half-life (h)

> print(dat)
              compound  numeric.result
1  CCO [EtOH, ethanol]             1.9

====

# assay procedure: in vivo
# condition notes: rat, spinal cord, ip, 4 g/kg, T ½ Late, 21 day old rat, 4 g/kg 15% EtOH i.p.
result type: half-life (h)

> print(dat)
              molecule  numeric.result
1  CCO [EtOH, ethanol]            11.7

====

# assay procedure: in vivo
# condition notes: rat, whole blood, ip, 4 g/kg, T ½ Late, Blood, 7 day old rat, 4 g/kg 15% EtOH i.p.
result type: half-life

> print(dat)
   given.smiles  result
1           CCO  18.1 h
